Target: USP25 (USP25-His6, Boston Biochem E-546) (Homo sapiens)
Construct: His6; purchased Boston Biochem E-546
Sequence (Q9UHP3 whole entry): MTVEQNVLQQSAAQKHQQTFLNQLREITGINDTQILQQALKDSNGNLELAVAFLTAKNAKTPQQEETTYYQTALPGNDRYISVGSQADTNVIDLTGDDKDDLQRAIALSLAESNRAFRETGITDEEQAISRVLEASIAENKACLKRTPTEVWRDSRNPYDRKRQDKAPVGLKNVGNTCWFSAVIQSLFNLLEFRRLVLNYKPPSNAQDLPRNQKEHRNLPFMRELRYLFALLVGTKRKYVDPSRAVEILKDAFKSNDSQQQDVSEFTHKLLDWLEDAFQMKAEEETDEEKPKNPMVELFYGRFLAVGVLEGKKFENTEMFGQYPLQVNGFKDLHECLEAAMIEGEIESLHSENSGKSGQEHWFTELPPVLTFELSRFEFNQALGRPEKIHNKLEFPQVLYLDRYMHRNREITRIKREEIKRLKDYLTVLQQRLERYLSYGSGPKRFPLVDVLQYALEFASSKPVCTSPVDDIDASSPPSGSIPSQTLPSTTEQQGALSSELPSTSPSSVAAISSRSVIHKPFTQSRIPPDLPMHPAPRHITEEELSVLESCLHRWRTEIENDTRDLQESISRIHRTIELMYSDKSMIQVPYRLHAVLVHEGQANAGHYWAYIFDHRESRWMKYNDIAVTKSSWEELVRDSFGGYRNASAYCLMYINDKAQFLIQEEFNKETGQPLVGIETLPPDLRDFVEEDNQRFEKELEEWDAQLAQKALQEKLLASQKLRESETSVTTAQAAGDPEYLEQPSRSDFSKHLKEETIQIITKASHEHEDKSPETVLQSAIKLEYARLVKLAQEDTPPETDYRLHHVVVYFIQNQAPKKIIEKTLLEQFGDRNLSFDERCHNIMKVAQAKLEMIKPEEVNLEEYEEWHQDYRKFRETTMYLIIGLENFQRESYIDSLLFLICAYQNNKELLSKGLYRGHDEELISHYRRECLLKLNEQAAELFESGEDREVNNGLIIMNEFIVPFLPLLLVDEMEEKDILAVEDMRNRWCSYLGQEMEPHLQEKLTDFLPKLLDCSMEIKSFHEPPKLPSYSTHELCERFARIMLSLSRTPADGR
Test: Ubiquitin-Rhodamine 110 Assay for USP25 Activity, Example A-2
Assay type: biochemical
Settings: Ubiquitin-Rhodamine 110 assay, Example A-2; read-out: USP25 A-2 IC50 range
reported-metric: IC50

Sample answers from the record:
>>> print(df.to_string())
                                   molecule                             system_tested  reported_metric          result
0  Cc1ccc2c(N)c(C(=O)N[C@H]3COc4cc(N5CC[C@H]6CNC[C@H]65)cc(F)c4C3)sc2n1  USP25 (USP25-His6, Boston Biochem E-546) (Homo sapiens)             IC50    50 to 200 nM
1  CO[C@H]1CN(c2cc3c(cc2C#N)C[C@@H](NC(=O)c2sc4nc(C)ccc4c2N)CC3)C[C@@H]1N  USP25 (USP25-His6, Boston Biochem E-546) (Homo sapiens)             IC50  200 to 2000 nM
2  O=C(N[C@H]1COc2cc(N3CCNCC3)ccc2C1)c1ccc(NCc2ccccc2)nc1  USP25 (USP25-His6, Boston Biochem E-546) (Homo sapiens)             IC50  200 to 2000 nM
3  Cc1ccc2c(N)c(C(=O)N[C@H]3COc4cc(N5CCN[C@H](C(F)(F)F)C5)ccc4C3)sc2n1  USP25 (USP25-His6, Boston Biochem E-546) (Homo sapiens)             IC50  200 to 2000 nM
4  Cc1cnc2c(N)c(C(=O)N[C@H]3COc4c(F)c(N5CC6CCC(C5)N6)cc(F)c4C3)sc2n1  USP25 (USP25-His6, Boston Biochem E-546) (Homo sapiens)             IC50      1 to 50 nM
5  COc1ccc2c(N)c(C(=O)N[C@@H]3CCc4cc(N5CC6CCC(C5)N6)ccc4C3)sc2n1 (single isomer, unassigned)  USP25 (USP25-His6, Boston Biochem E-546) (Homo sapiens)             IC50       > 2000 nM

Per the record, `Cc1ccc2c(N)c(C(=O)N[C@H]3COc4c(F)c(N5CCNCC5)cc(F)c4C3)oc2n1` has IC50 of > 2000 nM
